- Measured target: recombinant human MMP-13 (Homo sapiens, UniProt P45452)
- Construct: made in house; host or cells: baculovirus (pBlueBac4 / Bac-N-Blue; virus made in Sf9), expressed in High-Five insect cells; culture supernatant used
- Protocol: Assay of MMP-13 inhibiting activity (fluorogenic peptide substrate)
- Format: biochemical
- Measurement setup: Table 10; 37° C., 2 hours
Quick reference for IC50 among some molecules
Measure: IC50 (nM)

[[record]]
molecule = "O=C(c1ccccc1)c1ccc(CN2CC(S)CC2=O)cc1 (stereo not drawn)"
measure = "IC50"
sign = "="
quantitative_readout = 20

[[record]]
molecule = "CC(=O)SC1CC(=O)N(Cc2ccc(OCc3ccccc3)cc2)C1 (stereo not drawn)"
measure = "IC50"
sign = "="
quantitative_readout = 1000

[[record]]
molecule = "O=C1CC(S)CN1Cc1ccc(Cc2ccccc2)cc1 (stereo not drawn)"
measure = "IC50"
sign = "="
quantitative_readout = 90

[[record]]
molecule = "O=C1CC(S)CN1Cc1ccc([S+]([O-])c2ccccc2)cc1 (stereo not drawn)"
measure = "IC50"
sign = ">"
quantitative_readout = 10000

[[record]]
molecule = "CC(=O)SC1CC(=O)N(Cc2ccc([S+]([O-])c3ccccc3)cc2)C1 (stereo not drawn)"
measure = "IC50"
sign = ">"
quantitative_readout = 10000

[[record]]
molecule = "CC(=O)SC1CC(=O)N(Cc2ccc(C(=O)c3ccccc3)cc2)C1 (stereo not drawn)"
measure = "IC50"
sign = "="
quantitative_readout = 200

[[record]]
molecule = "CC(=O)SC1CC(=O)N(Cc2ccc(S(=O)(=O)c3ccccc3)cc2)C1 (stereo not drawn)"
measure = "IC50"
sign = ">"
quantitative_readout = 10000

[[record]]
molecule = "O=C1CC(S)CN1Cc1ccc(COc2ccccc2)cc1 (stereo not drawn)"
measure = "IC50"
sign = "="
quantitative_readout = 80

[[record]]
molecule = "CC(=O)SC1CC(=O)N(CCc2ccc(Oc3ccccc3)cc2)C1 (stereo not drawn)"
measure = "IC50"
sign = "="
quantitative_readout = 7000


* * *

- Measured target: recombinant human MMP-13 (Homo sapiens)
- Construct: made in house; host or cells: baculovirus (pBlueBac4 / Bac-N-Blue; virus made in Sf9), expressed in High-Five insect cells; culture supernatant used
- Protocol: Assay of MMP-13 inhibiting activity (fluorogenic peptide substrate)
- Assay type: biochemical
- Measurement setup: Table 1; 37° C., 2 hours
pIC50: −log10 of the molar value.
Measure: pIC50

[[record]]
compound = "CC(=O)SC1CC(=O)N(Cc2ccc(Oc3ccccc3)cc2)C1=O (stereo not shown)"
measure = "pIC50"
sign = "="
quantitative_readout = 7.52

[[record]]
compound = "CCOC(=O)CCSC1CC(=O)N(Cc2ccc(Oc3ccccc3)cc2)C1=O (stereo not shown)"
measure = "pIC50"
sign = "<"
quantitative_readout = 5.00

[[record]]
compound = "O=C1CC(SSCC2CCCO2)C(=O)N1Cc1ccc(Oc2ccccc2)cc1 (stereo not shown)"
measure = "pIC50"
sign = "="
quantitative_readout = 7.00

[[record]]
compound = "O=C(SC1CC(=O)N(Cc2ccc(Oc3ccccc3)cc2)C1=O)c1ccccc1 (stereo not shown)"
measure = "pIC50"
sign = "="
quantitative_readout = 8.70

[[record]]
compound = "CC(=O)SCC1CC(=O)N(Cc2ccc(Oc3ccccc3)cc2)C1=O (stereo not shown)"
measure = "pIC50"
sign = "="
quantitative_readout = 6.40

[[record]]
compound = "CCSC1CC(=O)N(Cc2ccc(Oc3ccccc3)cc2)C1=O (stereo not shown)"
measure = "pIC50"
sign = "<"
quantitative_readout = 5.00

[[record]]
compound = "O=C1CC(SCc2ccccc2)C(=O)N1Cc1ccc(Oc2ccccc2)cc1 (stereo not shown)"
measure = "pIC50"
sign = "<"
quantitative_readout = 5.00


* * *

- Measured target: recombinant human MMP-13 (Homo sapiens)
- Construct: made in house; host or cells: baculovirus (pBlueBac4 / Bac-N-Blue; virus made in Sf9), expressed in High-Five insect cells; culture supernatant used
- Protocol: Assay of MMP-13 inhibiting activity (fluorogenic peptide substrate)
- Type: biochemical
- Measurement setup: Table 13; 37° C., 2 hours
Quick reference for log10 IC50 among some compounds
Measure: log10 IC50 (log10 of the value in nM)

[[record]]
compound = "O=C1C(S)CCCN1Cc1ccc(Oc2ccccc2)cc1 (stereo not drawn) [Example 48]"
quantitative_readout = 3.70

[[record]]
compound = "CC(=O)SC1CCC(=O)N(Cc2ccc(Oc3ccccc3)cc2)C1=O (stereo not drawn) [Example 42]"
quantitative_readout = 1.85

[[record]]
compound = "O=C(SC1CCCN(Cc2ccc(Oc3ccccc3)cc2)C1=O)c1ccccc1 (stereo not drawn) [Example 47]"
quantitative_readout = 3.60

[[record]]
compound = "CC(=O)SC1CCC(=O)N(Cc2ccc(Oc3ccc(Br)cc3)cc2)C1=O (stereo not drawn) [Example 43]"
quantitative_readout = 1.30

[[record]]
compound = "O=C(SC1CCC(=O)N(Cc2ccc(Oc3ccccc3)cc2)C1=O)c1ccccc1 (stereo not drawn) [Example 44]"
quantitative_readout = 1.00


* * *

- Measured target: recombinant human MMP-13 (Homo sapiens)
- Construct: made in house; host or cells: baculovirus (pBlueBac4 / Bac-N-Blue; virus made in Sf9), expressed in High-Five insect cells; culture supernatant used
- Protocol: Assay of MMP-13 inhibiting activity (fluorogenic peptide substrate)
- Assay type: biochemical
- Measurement setup: Table 7; 37° C., 2 hours
pIC50: −log10 of the molar value.
Measure: pIC50

[[record]]
molecule = "O=C1C[C@H](SS[C@H]2CC(=O)N(Cc3ccc(Oc4ccccc4)cc3)C2)CN1Cc1ccc(Oc2ccccc2)cc1"
measured_target = "recombinant human MMP-13 (Homo sapiens)"
measure = "pIC50"
sign = "<"
quantitative_readout = 5.00

[[record]]
molecule = "O=C1C[C@@H](SS[C@@H]2CC(=O)N(Cc3ccc(Oc4ccccc4)cc3)C2)CN1Cc1ccc(Oc2ccccc2)cc1"
measured_target = "recombinant human MMP-13 (Homo sapiens)"
measure = "pIC50"
sign = "="
quantitative_readout = 7.15

[[record]]
molecule = "O=C1CC(SSC2CC(=O)N(Cc3ccc(Oc4ccccc4)cc3)C2=O)C(=O)N1Cc1ccc(Oc2ccccc2)cc1 (stereo not drawn)"
measured_target = "recombinant human MMP-13 (Homo sapiens)"
measure = "pIC50"
sign = "="
quantitative_readout = 8.05

[[record]]
molecule = "O=C1CC(SSC2CC(=O)N(Cc3ccc(Oc4ccccc4)cc3)C2)CN1Cc1ccc(Oc2ccccc2)cc1 (stereo not drawn)"
measured_target = "recombinant human MMP-13 (Homo sapiens)"
measure = "pIC50"
sign = "="
quantitative_readout = 6.70

[[record]]
molecule = "O=C1CC(SC2CC(=O)N(Cc3ccc(Oc4ccccc4)cc3)C2=O)C(=O)N1Cc1ccc(Oc2ccccc2)cc1 (stereo not drawn)"
measured_target = "recombinant human MMP-13 (Homo sapiens)"
measure = "pIC50"
sign = "="
quantitative_readout = 7.00

[[record]]
molecule = "O=C1CC(CSSCC2CC(=O)N(Cc3ccc(Oc4ccccc4)cc3)C2=O)C(=O)N1Cc1ccc(Oc2ccccc2)cc1 (stereo not drawn)"
measured_target = "recombinant human MMP-13 (Homo sapiens)"
measure = "pIC50"
sign = "<"
quantitative_readout = 5.00


* * *

- Measured target: recombinant human MMP-13 (Homo sapiens)
- Construct: made in house; host or cells: baculovirus (pBlueBac4 / Bac-N-Blue; virus made in Sf9), expressed in High-Five insect cells; culture supernatant used
- Protocol: Assay of MMP-13 inhibiting activity (fluorogenic peptide substrate)
- Format: biochemical
- Measurement setup: Table 2; 37° C., 2 hours
pIC50: −log10 of the molar value.
Measure: pIC50

[[record]]
molecule = "CC(=O)SC1C(=O)N(Cc2ccc(Oc3ccccc3)cc2)C(=O)C1C (stereo not drawn)"
quantitative_readout = 7.30

[[record]]
molecule = "CC1C(=O)N(Cc2ccc(Oc3ccccc3)cc2)C(=O)C1S (stereo not drawn)"
quantitative_readout = 7.70

[[record]]
molecule = "COC(=O)CCSC1C(=O)N(Cc2ccc(Oc3ccccc3)cc2)C(=O)C1O (stereo not drawn)"
quantitative_readout = 6.00


* * *

Quick reference for IC50 among some compounds
- Measured target: recombinant human MMP-13 (Homo sapiens, UniProt P45452)
- Construct: made in house; host or cells: baculovirus (pBlueBac4 / Bac-N-Blue; virus made in Sf9), expressed in High-Five insect cells; culture supernatant used
- Protocol: Assay of MMP-13 inhibiting activity (fluorogenic peptide substrate)
- Format: biochemical
- Measurement setup: Table 11; 37° C., 2 hours
Measure: IC50

[[record]]
compound = "CC(=O)SC1CC(=O)N(Cc2ccc(Oc3ccsc3)cc2)C1 (stereo not drawn)"
result = "6 nM"

[[record]]
compound = "CC(=O)SC1CC(=O)N(Cc2ccc3oc4ccccc4c3c2)C1 (stereo not drawn)"
result = "300 nM"

[[record]]
compound = "O=C1CC(S)CN1Cc1ccc2oc3ccccc3c2c1 (stereo not drawn)"
result = "100 nM"

[[record]]
compound = "CC(=O)SC1CC(=O)N(Cc2ccc(N(c3ccccc3)S(=O)(=O)c3ccc(C)cc3)cc2)C1 (stereo not drawn)"
result = "> 10000 nM"

[[record]]
compound = "CC(=O)S[C@@H]1CC(=O)N(Cc2ccc(Oc3ccc4c(c3)OCO4)cc2)C1"
result = "12 nM"

[[record]]
compound = "O=C1CC(S)CN1Cc1ccc(Oc2ccsc2)cc1 (stereo not drawn)"
result = "4 nM"

[[record]]
compound = "CC(=O)SC1CC(=O)N(CC2CCN(C(=O)c3ccccc3)CC2)C1 (stereo not drawn)"
result = "> 10000 nM"

[[record]]
compound = "Cc1ccc(S(=O)(=O)N(c2ccccc2)c2ccc(CN3CC(S)CC3=O)cc2)cc1 (stereo not drawn)"
result = "3900 nM"

[[record]]
compound = "CC(=O)SC1CC(=O)N(Cc2ccc(Oc3ccccn3)cc2)C1 (stereo not drawn)"
result = "700 nM"

